Data provenance: ChEMBL document CHEMBL2380240

Target: CYP2C9 (Homo sapiens, UniProt P11712)
Sequence (P11712 whole entry): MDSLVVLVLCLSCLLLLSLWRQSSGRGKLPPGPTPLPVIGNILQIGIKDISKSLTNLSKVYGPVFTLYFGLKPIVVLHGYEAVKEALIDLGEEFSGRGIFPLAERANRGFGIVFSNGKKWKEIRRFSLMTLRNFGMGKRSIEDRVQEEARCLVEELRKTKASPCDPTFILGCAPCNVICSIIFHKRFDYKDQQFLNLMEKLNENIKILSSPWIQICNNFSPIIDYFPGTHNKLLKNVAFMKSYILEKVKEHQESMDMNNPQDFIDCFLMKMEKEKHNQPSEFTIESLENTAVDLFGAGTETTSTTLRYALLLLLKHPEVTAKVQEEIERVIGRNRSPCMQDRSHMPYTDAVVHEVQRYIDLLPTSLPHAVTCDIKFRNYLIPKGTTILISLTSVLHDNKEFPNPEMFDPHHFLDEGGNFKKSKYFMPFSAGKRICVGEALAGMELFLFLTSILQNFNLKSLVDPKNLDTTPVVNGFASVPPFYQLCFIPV
Assay Protocol: Inhibition of human recombinant CYP2C9 at 3 uM by fluorimetric assay
Type: ADME
Could you please report measured inhibition at 3 µM for the items listed next?

Would you kindly share the measured inhibition at 3 µM for `N#Cc1ccc(-c2ncccn2)c(C(=O)N2CC3(CC3)C[C@H]2CNc2ccc(C(F)(F)F)cn2)c1` ?
< 32%

Would you kindly share the measured inhibition at 3 µM for `O=C(c1nc(C(F)(F)F)ccc1-c1ncccn1)N1CC2(CC2)C[C@H]1CNc1ccc(C(F)(F)F)cn1` ?
< 39%

Would you kindly share the measured inhibition at 3 µM for `Cc1nc(C(=O)N2CC3(CC3)C[C@H]2CNc2ccc(C(F)(F)F)cn2)c(-c2ccccc2)s1` ?
< 20%

Would you kindly share the measured inhibition at 3 µM for `O=C(c1nc(OC(F)(F)F)ccc1-c1ncccn1)N1CC2(CC2)C[C@H]1CNc1ccc(C(F)(F)F)cn1` ?
< 58%

Would you kindly share the measured inhibition at 3 µM for `Cc1ccc(-c2ncccn2)c(C(=O)N2CC3(CC3)C[C@H]2CNc2ccc(C(F)(F)F)cn2)n1` ?
< 28%

Would you kindly share the measured inhibition at 3 µM for `Cc1ccc(-c2ccccc2)c(C(=O)N2CC3(CC3)C[C@H]2CNc2ccc(C(F)(F)F)cn2)n1` ?
< 20%

Would you kindly share the measured inhibition at 3 µM for `CS(=O)(=O)c1ccc(-c2ccccc2)c(C(=O)N2CC3(CC3)C[C@H]2CNc2ccc(C(F)(F)F)cn2)c1` ?
< 41%

Would you kindly share the measured inhibition at 3 µM for `Cc1ccc(OCc2ccccc2)c(C(=O)N2CC3(CC3)C[C@H]2CNc2ccc(C(F)(F)F)cn2)n1` ?
< 71%

Would you kindly share the measured inhibition at 3 µM for `O=C(c1ncccc1-c1ncccn1)N1CC2(CC2)C[C@H]1CNc1ccc(C(F)(F)F)cn1` ?
< 47%

Would you kindly share the measured inhibition at 3 µM for `Cc1cnn(-c2ccc(C)nc2C(=O)N2CC3(CC3)C[C@H]2CNc2ccc(C(F)(F)F)cn2)c1` ?
< 85%

Would you kindly share the measured inhibition at 3 µM for `O=C(c1cc(Cl)ccc1-c1ncccn1)N1CC2(CC2)C[C@H]1CNc1ccc(C(F)(F)F)cn1` ?
< 22%

Would you kindly share the measured inhibition at 3 µM for `Cc1ccc(-c2nccs2)c(C(=O)N2CC3(CC3)C[C@H]2CNc2ccc(C(F)(F)F)cn2)n1` ?
< 89%
